experiment: p53 small molecule agonists, cell-based qHTS assay with rat liver microsomes: qHTS cell viability counter screen (AID 1963580); details: p53RE-bla HCT-116 + rat microsomes, ATP viability, 16 h; series mostly up to 66 µM; also: nearly all actives have a fitted effect of over 45% in size
Inconclusive results are not listed. Activity calls are given as the source filed them. Calls follow the shape of the full dose curve.
measured-attribute: outcome

compound=C=CC=O value_reported=inactive
compound=CCCN(CCC)c1c([N+](=O)[O-])cc(C(C)C)cc1[N+](=O)[O-] value_reported=inactive
compound=CCOS(C)(=O)=O value_reported=inactive
compound=Nc1cnn(-c2ccccc2)c(=O)c1Cl value_reported=inactive
compound=NCc1cccnc1 value_reported=inactive
compound=CCCCCCCCCCCCOS(=O)(=O)O value_reported=inactive
compound=CC1(C)Cc2cccc(O)c2O1 value_reported=inactive
compound="CCCC[N+]1(C)CCCC1 (tested in a mixture with another compound)" value_reported=inactive
compound=Oc1c(Br)cc(Br)cc1Br value_reported=inactive
compound=Nn1cnnc1 value_reported=inactive
compound="C[C@H]1O[C@H](OC2[C@@H](O)[C@@H](O)C(O)[C@H](O)[C@H]2O)[C@@H](N)C[C@@H]1N=C(N)C(=O)O (stereo partly specified)" value_reported=inactive
compound=Cc1ccc(N=CN(C)C=Nc2ccc(C)cc2C)c(C)c1 value_reported=inactive
compound=C[N+](C)(C)C value_reported=inactive
compound=O=[N+]([O-])c1c(Cl)c(Cl)c(Cl)c(Cl)c1Cl value_reported=inactive
compound=Cc1ccc(Cl)c(O)c1 value_reported=inactive
compound=ClCc1ccccn1 value_reported=inactive
compound=Sc1ccccc1 value_reported=inactive
compound=OCCCCO value_reported=inactive
compound=C=CC(C)=O value_reported=inactive
compound=CC(=O)[C@H]1CC[C@H]2[C@@H]3CC[C@H]4C[C@](C)(O)CC[C@]4(C)[C@H]3CC[C@]12C value_reported=inactive
compound=[CH3][Sn]([Cl])([Cl])[Cl] value_reported=inactive
compound=Nc1c(Cl)c(Cl)nc(C(=O)O)c1Cl value_reported=inactive
compound=CCCCCCCCCCCC#N value_reported=inactive
compound=O=S(=O)(O)O value_reported=inactive
compound=O=C(NC(=O)c1ccccc1Cl)Nc1ccc(OC(F)(F)F)cc1 value_reported=inactive
compound=O=[N+]([O-])c1ccc([As](=O)(O)O)cc1 value_reported=inactive
compound=N#CCCC#N value_reported=inactive
compound=Nc1ncc([N+](=O)[O-])s1 value_reported=inactive
compound="CCc1cccc(C)c1N(C(=O)CCl)C(C)COC (stereo unspecified)" value_reported=inactive
compound=CCN(C)N=O value_reported=inactive
compound=COP(=O)(CCC(=O)NCO)OC value_reported=inactive

###

Experiment: p53 small molecule agonists, cell-based qHTS assay with rat liver microsomes (AID 1963578)
Details: HCT-116 p53RE-bla, beta-lactamase ratio, 16 h; series mostly up to 66 µM
Text: U.S. Tox21 Program National Center for Advancing Translational Sciences [NCATS] Division of Preclinical Innovation [DPI] U.S. Environmental Protection Agency [EPA] National Institutes of Environmental Health Sciences [NIEHS] National Toxicology Program [NTP] U.S. Food and Drug Administration [FDA] […] The activation of the reporter gene under culture conditions can be detected by fluorescence intensity. […]
Records with an inconclusive call do not appear. Activity calls are given as the source filed them. Calls come from the whole dose curve.
measured-attribute: activation

compound=CC(C)CON=O measured_attribute=activation value_reported=inactive
compound=CCOS(C)(=O)=O measured_attribute=activation value_reported=inactive
compound="O=C1C2CC=CCC2C(=O)N1SC(Cl)(Cl)Cl (stereo not drawn)" measured_attribute=activation value_reported=inactive
compound=C=Cc1cccc(CCl)c1 measured_attribute=activation value_reported=inactive
compound=O=C1CCCO1 measured_attribute=activation value_reported=inactive
compound=N#CSCSC#N measured_attribute=activation value_reported=inactive
compound=O=NN1CCCCC1 measured_attribute=activation value_reported=inactive
compound=CC(=O)C(Cl)Cl measured_attribute=activation value_reported=inactive
compound="CCC(C)n1c(=O)[nH]c(C)c(Br)c1=O (stereo not drawn)" measured_attribute=activation value_reported=inactive
compound=CCCCOP(=O)(CCCC)OCCCC measured_attribute=activation value_reported=inactive
compound=CC(C)CCCCCOC(=O)c1ccccc1C(=O)OCCCCCC(C)C measured_attribute=activation value_reported=inactive
compound=CC(c1ccc(O)cc1)c1ccc(O)cc1 measured_attribute=activation value_reported=inactive
compound=CN(C)c1ccc(C(=O)c2ccc(N(C)C)cc2)cc1 measured_attribute=activation value_reported=inactive

Every entry's value here was drawn from PubChem BioAssay (Tox21).
